tested on: norbornane type ester hydrolase; test: Optically selective hydrolysis of (±)-exo-norbornane type esters by purified enzyme, optical resolution GC; assay type: biochemical, Acetobacter pasteurianus ATCC 12873; conditions: 1% ester, 30° C., 30 minutes
reported.metric: Produced norborneol (+)-isomer (mg/mL)

Examples with answers:
CCCC(=O)O[C@H]1C[C@@H]2CC[C@H]1C2 (relative stereo) ... 0.29
O=CO[C@H]1C[C@@H]2CC[C@H]1C2 (relative stereo) ... 0.15
CC(=O)O[C@H]1C[C@@H]2CC[C@H]1C2 (relative stereo) [Acetyl, (±)-exo-norbornyl acetate] ... 0.19

(I) CCC(=O)O[C@H]1C[C@@H]2CC[C@H]1C2 (relative stereo)
(II) CC(C)C(=O)O[C@H]1C[C@@H]2CC[C@H]1C2 (relative stereo)
Query: Higher Produced norborneol (+)-isomer between I and II ? Refer to your chosen item by its label in the answer.
Reply: II

====

Test system: norbornane type ester hydrolase
Test: Optically selective hydrolysis of (±)-exo-norbornane type esters by purified enzyme, optical resolution GC
Assay type: biochemical, Acetobacter pasteurianus ATCC 12873
Settings: 1% ester, 30° C., 30 minutes
Description: Various kinds of the (±)-exo-norbornane type esters respectively comprising formyl, acetyl, propionyl, n-butyryl or isobutyryl as the acyl R in formula I were allowed to come in contact with an enzyme solution, respectively as a substrate. Each of the obtained products was extracted with an equal volume of chloroform. The extract was analyzed by gas chromatography using a column for optical resolution (produced by J & W Scientific). (-)-Norborneol was selectively produced in all the extracts. […]
reported.metric: Produced norborneol (-)-isomer (mg/mL)

Examples with answers:
CC(C)C(=O)O[C@H]1C[C@@H]2CC[C@H]1C2 (relative stereo) ... 2.76
CC(=O)O[C@H]1C[C@@H]2CC[C@H]1C2 (relative stereo) [Acetyl, (±)-exo-norbornyl acetate] ... 2.48

(1) CCCC(=O)O[C@H]1C[C@@H]2CC[C@H]1C2 (relative stereo)
(2) CCC(=O)O[C@H]1C[C@@H]2CC[C@H]1C2 (relative stereo)
(3) O=CO[C@H]1C[C@@H]2CC[C@H]1C2 (relative stereo)
Query: Hey, can you sort those molecules up there by Produced norborneol (-)-isomer, smallest first? Give the order by naming the labels one after another as requested.
Reply: 3, 1, 2
